Assay: NCI Yeast Anticancer Drug Screen. Data for the bub3 strain (AID 167)
Conditions: S. cerevisiae bub3 mutant strain, at 50.0 µM, stronger effect = higher value
Compounds without any hit were thinned out: in the full panel of roughly 79,000, 15% have a hit.
Can you tell me growth inhibition for the items I'm about to list?
Answers are plain numbers, in %.

Example entries begin here.
{"compound": "NS(=O)(=O)c1cc2c(cc1Cl)NC(Cc1ccccc1)NS2(=O)=O (stereo unspecified)", "assayEndpoint": "growth inhibition", "readoutUnits": "%", "readoutValue": 0.2}
{"compound": "COc1cc(C=Nc2ccc(N3CCOCC3)cc2)ccc1O", "assayEndpoint": "growth inhibition", "readoutUnits": "%", "readoutValue": 12.6}
{"compound": "O=C(Cc1ccc([N+](=O)[O-])cc1)ON1C(=O)CCC1=O", "assayEndpoint": "growth inhibition", "readoutUnits": "%", "readoutValue": -20.1}
{"compound": "COC(=O)/C(=C/c1ccc(OC)cc1)C(C(=O)O)=C1CCCCC1", "assayEndpoint": "growth inhibition", "readoutUnits": "%", "readoutValue": 2.25}

Each compound below has a reported value. Please supply its growth inhibition.
1. COc1ccc(Cl)cc1NC(=O)Nc1ccc(S(N)(=O)=O)cc1
2. COC(=O)C1=C(C)N(NC(=O)c2cccc(Cl)c2)C(C)(O)C12CCOC2=O (stereo unspecified)

Output:
1. 19.1
2. 0.6
